# Tested on: P388 leukemia ip, CD2F1 mice, survival T/C
# assay: NCI In Vivo Anticancer Drug Screen. Data for tumor model P388 Leukemia (intraperitoneal) in CD2F1 (CDF1) mice
# applied.conditions: endpoint: median survival time; dose: 50.0 mg/kg/injection; schedule: Q01DX005 (ip); vehicle: saline with Tween-80; higher = longer survival
Toxic doses and inconclusive results are not listed.
# T/C annotations

compound: O=CNc1c2ccccc2c(NC=O)c2ccccc12
T/C: 92 % of control
--
compound: O=C(/N=C1\N=Nc2nc(CC(=O)c3cccc4ccccc34)c(O)n21)Nc1ccc(Cl)cc1
T/C: 96 % of control
--
compound: CC1(C)[C@@H]2CC[C@]3(C)[C@H]4CC[C@]5(C)[C@@H](O)CC[C@H]5[C@@H]4CC[C@]3(O2)[C@@H]1O
T/C: 91 % of control
--
compound: CCCOc1cc2c(cc1C/C=C/c1ccccc1)OCO2
T/C: 94 % of control
--
compound: O=C1/C(=C\c2ccccc2)SC(=S)N1c1cccc(Br)c1
T/C: 97 % of control
--
compound: COC(=O)c1c(-c2cc(OC)c(OC)cc2[N+](=O)[O-])cn(C)c1C
T/C: 88 % of control
--
compound: CN1CC2c3ccccc3C(=O)C1(O)c1ccccc12 (centres undefined)
T/C: 103 % of control
--
compound: CC(/C=C/c1ccccc1)=N\NS(=O)(=O)c1ccc(C)cc1
T/C: 95 % of control
--
compound: Cn1c(CCCCCCCCc2c(C(=O)/C=C/c3ccccc3)c(=O)n(C)c(=O)n2C)c(C(=O)/C=C\c2ccccc2)c(=O)n(C)c1=O
T/C: 88 % of control
--
compound: CN1C(=O)/C(=C\c2ccccc2)N=C(c2ccccc2)c2cc(Cl)ccc21
T/C: 96 % of control
--
compound: O=C1CSC(C2CC=CCC2)N1c1nncs1 (centres undefined)
T/C: 100 % of control
--
compound: Nc1nc(I)c2ncn(C3OC(CO)C(O)C3O)c2n1 (centres undefined)
T/C: 98 % of control
--
compound: O/N=C1/CCC/C(=N/O)C1
T/C: 100 % of control
--
compound: COC(=O)c1cc(=O)nc(NN)s1
T/C: 92 % of control
--
compound: COc1cccc(Nc2ncnc3c2c(=O)n(C)c(=O)n3C)c1
T/C: 87 % of control
--
compound: CCCCCOc1ccc(C(=O)Oc2ccc(N=Nc3nccs3)cc2)cc1
T/C: 98 % of control
--
compound: Fc1ccc(-c2nc3ccccn3c2N=Nc2ccccc2)cc1
T/C: 88 % of control
--
compound: CCCCN1C(=O)NC(C)C1=O (centres undefined)
T/C: 99 % of control
--
compound: CCCN(C)CC(C)(O)CNc1cc(OC)cc2cccnc12 (centres undefined)
T/C: 106 % of control
--
compound: O=C1CSc2nc3ccc(Cl)cc3c(=O)n21
T/C: 93 % of control
--
compound: CCOC(=O)c1ccc(N2N=C3C(=CC(=O)c4ccccc43)SCC2=O)cc1
T/C: 116 % of control
--
compound: O=C(Cc1ccccc1)CC(CC(=O)Cc1ccccc1)c1ccccc1
T/C: 94 % of control
--
compound: CCB(CC)OC1OC(C2COB(CC)O2)C2OB(CC)OC12 (centres undefined)
T/C: 103 % of control
--
compound: CCOC(=O)CC1=NC(=Nc2ccc(Cl)c(Cl)c2)SC1
T/C: 103 % of control

FYI, the data here is from PubChem BioAssay AID330.
